Where these numbers come from: PubChem BioAssay (NCI)

Tested on: SNB-75 CNS
Assay Name: NCI tumour cell line growth inhibition, 48 h; in the data active = GI50 below about 0.43 µM; inactive = the rest
Classes used: t for active, f for inactive

{"columns": ["Molecule", "Assigned Class"],
 "data": [
  ["COc1ccc(-c2nsc3c2NC(=O)CC3c2cccc(F)c2)cc1 (stereo not given)", "f"],
  ["CCN(CC)CCOc1ccc(NC(=O)C(C(C)C)N2C(=O)/C(=C/c3ccc(Br)cc3)SC2=S)cc1 (stereo not given)", "f"],
  ["COc1ccc2[nH]cc(C3(c4c[nH]c5ccc(OC)cc45)C(=O)Nc4ccc(Cl)cc43)c2c1", "f"],
  ["CCN(CC)CCNc1ccc(N=Nc2cnc3ccccc3c2)c2ccccc12", "f"],
  ["COc1cc2c(cc1OC)-c1c(c3ccc([N+](=O)[O-])cc3c(=O)n1CCCN=[N+]=[N-])C2=O", "f"],
  ["C#Cc1cccc(Nc2ncnc3ccc(-c4cnc(N)nc4)cc23)c1", "f"],
  ["O=c1oc2ccc(I)cc2c(=O)n1-c1ccc(I)cc1F", "t"],
  ["Cc1cc(C(=O)CC(Cl)=C(Cl)Cl)c(Cl)cc1Cl", "f"],
  ["CCc1c2c(nc3ccc(OC(=O)OCc4ccc(B5OC(C)(C)C(C)(C)O5)cc4)cc13)-c1cc3c(c(=O)n1C2)COC(=O)[C@]3(O)CC", "t"],
  ["Fc1ccc(-c2c(-c3ccncc3)[nH]c3cccnc23)cc1", "f"],
  ["O=C(CS(=O)c1nc2ccccc2nc1-c1ccccc1)Nc1ccc(Cl)cc1 (stereo not given)", "f"],
  ["COc1ccc(Cl)cc1Nc1nc(C(F)(F)F)ccc1C(=O)N/N=C/c1ccccc1Cl", "f"],
  ["CCCCCCCCCCCCSC1=CC(=O)C=CC1=O", "f"],
  ["O=C(CCN1CCCC1)Nc1ccc2c(Nc3ccc(Br)cc3)c3ccccc3nc2c1", "f"],
  ["CCOC1Oc2ccccc2C(=O)/C1=C\\Nc1ccc(C(=O)O)c(O)c1 (stereo not given)", "f"]
]}
